- Species on record: Rattus norvegicus
- experiment: Open TG-GATES - Regimen: Daily Repeat
- Type: toxicity, organism-based, Sprague-Dawley
- Parameters: regimen Daily Repeat, gender Male, age 6 weeks
- conditionsUsed: in vivo, po, 300 mg/kg, […], tissue Plasma, route gavage, dose level Middle, time 7 day
Kindly state gamma-GTP for each of the entries shown.
Numbers only, in IU/L.

{"columns": ["compoundStructure", "readoutUnit", "gamma-GTP"],
 "data": [
  ["Cc1nnc2n1-c1ccc(Cl)cc1C(c1ccccc1Cl)=NC2", "IU/L", 1],
  ["O=C(OC[C@H]1O[C@@H](OC(=O)c2cc(O)c(O)c(OC(=O)c3cc(O)c(O)c(O)c3)c2)[C@H](OC(=O)c2cc(O)c(O)c(OC(=O)c3cc(O)c(O)c(O)c3)c2)[C@@H](OC(=O)c2cc(O)c(O)c(OC(=O)c3cc(O)c(O)c(O)c3)c2)[C@@H]1OC(=O)c1cc(O)c(O)c(OC(=O)c2cc(O)c(O)c(O)c2)c1)c1cc(O)c(O)c(OC(=O)c2cc(O)c(O)c(O)c2)c1", "IU/L", 1.6],
  ["CNC(=C[N+](=O)[O-])NCCSCc1ccc(CN(C)C)o1", "IU/L", 1.4]
]}

Hey, quick one: what's gamma-GTP for each of these?
1. COC(=O)C1=C(C)NC(C)=C(C(=O)OC)C1c1ccccc1[N+](=O)[O-]
2. CN/C(=N/CCSCc1nc[nH]c1C)NC#N
3. CCOc1ccc(NC(C)=O)cc1

Solution:
[1, 1.4, 1.4]

---

Hi there, I'd appreciate the recorded Eos for every entry that follows.
- Species on record: Rattus norvegicus
- experiment: Open TG-GATES - Regimen: Daily Repeat
- Assay type: toxicity, organism-based, Sprague-Dawley
- Set-up: regimen Daily Repeat, gender Male, age 6 weeks
- conditionsUsed: in vivo, po, 0 mg/kg, […], tissue Blood, route gavage, dose level Control, time 28 day

Take a look at these entries with their results.
{"columns": ["compound", "Eos"],
 "data": [
  ["CCCc1cc(=O)[nH]c(=S)[nH]1 [PROPYLTHIOURACIL]", "0.6%"],
  ["CNC(=C[N+](=O)[O-])NCCSCc1ccc(CN(C)C)o1 [RANITIDINE]", "1.4%"],
  ["COC(=O)C1=C(C)NC(C)=C(C(=O)OC)C1c1ccccc1[N+](=O)[O-] [NIFEDIPINE]", "1%"],
  ["NC1=NC(=O)C(c2ccccc2)O1 (stereo not given) [PEMOLINE]", "1%"]
]}

Problem: Data request, read-out Eos, for CC(C)NNC(=O)c1ccncc1 [IPRONIAZID]
Solution: 0.8%

---

- Species on record: Rattus norvegicus
- experiment: Open TG-GATES - Regimen: Single
- Format: toxicity, organism-based, Sprague-Dawley
- Set-up: regimen Single, gender Male, age 6 weeks
- conditionsUsed: in vivo, po, 0 mg/kg, 9 h, tissue Plasma, route gavage, dose level Control
Label condition met when CRE is at or above 0.2 mg/dL; anything below gets condition not met.

{"columns": ["compound", "groupLabel"],
 "data": [
  ["O=C(OC[C@H]1O[C@@H](OC(=O)c2cc(O)c(O)c(OC(=O)c3cc(O)c(O)c(O)c3)c2)[C@H](OC(=O)c2cc(O)c(O)c(OC(=O)c3cc(O)c(O)c(O)c3)c2)[C@@H](OC(=O)c2cc(O)c(O)c(OC(=O)c3cc(O)c(O)c(O)c3)c2)[C@@H]1OC(=O)c1cc(O)c(O)c(OC(=O)c2cc(O)c(O)c(O)c2)c1)c1cc(O)c(O)c(OC(=O)c2cc(O)c(O)c(O)c2)c1", "condition met"],
  ["CCCc1cc(=O)[nH]c(=S)[nH]1", "condition met"],
  ["CN(C)CCC(c1ccc(Cl)cc1)c1ccccn1 (centres undefined)", "condition not met"]
]}

Problem: Does CN/C(=N/CCSCc1nc[nH]c1C)NC#N have a reported CRE of at least 0.2 mg/dL?
Solution: condition met

Problem: Repeat for the following compound: CNC(=C[N+](=O)[O-])NCCSCc1ccc(CN(C)C)o1
Solution: condition met
